Taken from paper PMC5241706.

- target or system: PfProRS (Plasmodium falciparum, UniProt Q8I5R7)
- Construct: B2, AA7–746 (minus 6 amino acids, or 99% of the ORF); made in house; host or cells: E. coli BL21(DE3)R3 Rosetta Oxford
- Sequence (Q8I5R7 7-746): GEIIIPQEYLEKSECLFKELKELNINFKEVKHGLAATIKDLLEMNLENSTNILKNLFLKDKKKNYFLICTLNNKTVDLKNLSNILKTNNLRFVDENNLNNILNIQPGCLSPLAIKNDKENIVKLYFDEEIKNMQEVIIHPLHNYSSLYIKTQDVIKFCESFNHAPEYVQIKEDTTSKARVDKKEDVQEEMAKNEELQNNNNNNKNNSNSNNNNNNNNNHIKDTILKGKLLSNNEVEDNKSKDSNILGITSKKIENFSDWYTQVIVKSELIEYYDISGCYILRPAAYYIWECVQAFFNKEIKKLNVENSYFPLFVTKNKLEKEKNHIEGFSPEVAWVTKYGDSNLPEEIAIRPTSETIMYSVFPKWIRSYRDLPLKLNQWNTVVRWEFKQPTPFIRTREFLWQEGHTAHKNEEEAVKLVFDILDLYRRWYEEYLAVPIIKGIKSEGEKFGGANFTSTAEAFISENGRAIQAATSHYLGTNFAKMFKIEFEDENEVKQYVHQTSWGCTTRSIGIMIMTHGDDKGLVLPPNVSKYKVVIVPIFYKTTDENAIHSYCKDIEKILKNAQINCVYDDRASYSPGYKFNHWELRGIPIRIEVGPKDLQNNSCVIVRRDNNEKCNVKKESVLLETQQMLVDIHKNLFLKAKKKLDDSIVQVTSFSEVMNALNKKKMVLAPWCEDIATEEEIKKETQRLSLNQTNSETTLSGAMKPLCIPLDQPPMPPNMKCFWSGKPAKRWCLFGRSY
- experimental details: ATP consumption assay with proline or ATP varied (competition)
- Assay type: biochemical
- condition info: Ki (Cheng-Prusoff, competition with ATP), intercept of IC50 vs [ATP]
parameter: pKi
pKi is a log-scale quantity: -log10 of the concentration expressed in molar.

pKi in this record for Cn1nc(C(F)(F)F)c(-c2ccc(F)cc2)c1NC(=O)Nc1ccc(F)cc1 : 4.29

---

Consider the following molecules; for each one, report its inhibition at 2.5 µM.
- target or system: PfProRS (Plasmodium falciparum, UniProt Q8I5R7)
- Construct: B2, AA7–746 (minus 6 amino acids, or 99% of the ORF); made in house; host or cells: E. coli BL21(DE3)R3 Rosetta Oxford
- experimental details: luciferase ATP depletion assay, HTS format
- Format: biochemical
- condition info: read-out: Percentage inhibition Pf ProRS

inhibition at 2.5 µM reported for this molecule N[C@@H](COc1cccc2c(-c3ccncc3)c(-c3cccc(NC(=O)Nc4ccccc4)c3)nn12)c1ccccc1 : 11.8%

Value of measured inhibition at 2.5 µM for the entry O=C(CCn1cncn1)N1CCCC(c2[nH]c3ccccc3c2-c2ccncc2)C1 (centres unmarked) : 24.7%

Kindly note the recorded inhibition at 2.5 µM for Cn1nc(C(F)(F)F)c(-c2ccc(F)cc2)c1NC(=O)Nc1ccc(F)cc1 , which is -0.36%

For CCCCC(N)COc1cccc2c(-c3ccncc3)c(-c3cccc(NC(=O)Nc4ccccc4)c3)nn12 (centres unmarked) the molecule record lists inhibition at 2.5 µM as 11.7%

Entry CCn1nc(-c2ccc(C(=O)OC)cc2)nc2c(=O)n(C)c(=O)nc1-2 ; inhibition at 2.5 µM = 72.8%

---

Task for the reader: assign each of the following molecules its reported inhibition at 1.46 µM.
- target or system: PfProRS (Plasmodium falciparum, UniProt Q8I5R7)
- Construct: B2, AA7–746 (minus 6 amino acids, or 99% of the ORF); made in house; host or cells: E. coli BL21(DE3)R3 Rosetta Oxford
- experimental details: luciferase ATP depletion assay, HTS format
- Format: biochemical
- condition info: read-out: Percentage inhibition Pf ProRS

get_value(item= Cc1c(Nc2ncccc2C(=O)O)cccc1C(F)(F)F [flunixin meglumine] , readout=inhibition at 1.46 µM) returns -0.28%

inhibition at 1.46 µM reading for COc1ccc(Cl)cc1C(=O)NCCc1ccc(S(=O)(=O)NC(=O)NC2CCCCC2)cc1 [glyburide] : 1.82%

The molecule listed as Cc1ccc(-c2oc(N)c(C#N)c2-c2ccc(C)cc2)cc1 [SJ000368256] has a reported inhibition at 1.46 µM of -0.33%

The reported inhibition at 1.46 µM of the molecule CCCc1nc2c(C)cc(-c3nc4ccccc4n3C)cc2n1Cc1ccc(-c2ccccc2C(=O)O)cc1 [telmisartan] was -0.06%

---

- Tested on: HsHEPG2
- experimental details: mammalian cell line selectivity
- Assay type: cell-based
- condition info: Homo sapiens; data not shown
parameter: EC50

EC50 reading for Cn1nc(C(F)(F)F)c(-c2ccc(F)cc2)c1NC(=O)Nc1ccc(F)cc1 : > 50 µM
